experimental-target: T1, human MSLN-R1-his protein (human, UniProt Q13421 296-390)
T1 construct: Made in HEK293E cells, purified on nickel column; also called hMSLN-R1-his; human MSLN-R1 protein; not shown: His tag
T1 chain: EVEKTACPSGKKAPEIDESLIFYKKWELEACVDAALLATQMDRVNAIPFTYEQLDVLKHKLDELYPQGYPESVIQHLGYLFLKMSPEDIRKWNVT
test: ELISA, coated antigen, no antibody (blank)
result-type: OD450
Reply with the value as a number alone.

Here are 9 binders together with their reported answers.
- S009-F7.44.20 chimeric antibody (antibody, human IgG1, kappa, V domains shown, Human-murine chimeric antibody, human IgG1/kappa constant regions) VH: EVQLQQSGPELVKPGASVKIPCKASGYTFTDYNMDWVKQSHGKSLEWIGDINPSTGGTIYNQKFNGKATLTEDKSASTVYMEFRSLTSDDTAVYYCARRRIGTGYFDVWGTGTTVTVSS VL: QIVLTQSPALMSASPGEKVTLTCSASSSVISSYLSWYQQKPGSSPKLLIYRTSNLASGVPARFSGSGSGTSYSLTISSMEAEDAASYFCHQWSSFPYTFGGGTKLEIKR: 0.06
- S009-F7.21.16 chimeric antibody (antibody, human IgG1, kappa, V domains shown, Human-murine chimeric antibody, human IgG1/kappa constant regions) VH: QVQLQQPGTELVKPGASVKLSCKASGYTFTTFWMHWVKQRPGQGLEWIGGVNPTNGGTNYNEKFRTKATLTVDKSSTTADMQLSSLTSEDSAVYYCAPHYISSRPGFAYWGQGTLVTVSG VL: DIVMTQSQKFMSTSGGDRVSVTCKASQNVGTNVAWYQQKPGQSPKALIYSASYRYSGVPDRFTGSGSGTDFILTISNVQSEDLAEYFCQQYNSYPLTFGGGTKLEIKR: 0.07
- S009-F7.61.21 chimeric antibody (antibody, human IgG1, kappa, V domains shown, Human-murine chimeric antibody, human IgG1/kappa constant regions) VH: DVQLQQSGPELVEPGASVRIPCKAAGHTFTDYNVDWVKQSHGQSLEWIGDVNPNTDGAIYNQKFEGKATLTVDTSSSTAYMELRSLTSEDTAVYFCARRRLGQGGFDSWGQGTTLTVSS VL: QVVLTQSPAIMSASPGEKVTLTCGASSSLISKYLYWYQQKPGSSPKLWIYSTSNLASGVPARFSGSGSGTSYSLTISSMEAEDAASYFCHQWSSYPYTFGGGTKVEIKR: 0.07
- S009-F7.26.15 chimeric antibody (antibody, human IgG1, kappa, V domains shown, Human-murine chimeric antibody, human IgG1/kappa constant regions) VH: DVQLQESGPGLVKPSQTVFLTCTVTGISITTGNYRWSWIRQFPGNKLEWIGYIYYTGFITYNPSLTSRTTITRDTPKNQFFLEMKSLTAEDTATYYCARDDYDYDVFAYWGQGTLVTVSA VL: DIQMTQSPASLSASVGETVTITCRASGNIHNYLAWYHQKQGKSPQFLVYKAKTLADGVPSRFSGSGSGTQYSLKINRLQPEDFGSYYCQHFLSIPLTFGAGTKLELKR: 0.06
- S009-F7.48.1 chimeric antibody (antibody, human IgG1, kappa, V domains shown, Human-murine chimeric antibody, human IgG1/kappa constant regions) VH: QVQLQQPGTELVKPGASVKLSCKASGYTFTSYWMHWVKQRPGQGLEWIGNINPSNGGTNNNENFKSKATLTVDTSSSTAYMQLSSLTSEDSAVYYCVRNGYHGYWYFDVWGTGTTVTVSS VL: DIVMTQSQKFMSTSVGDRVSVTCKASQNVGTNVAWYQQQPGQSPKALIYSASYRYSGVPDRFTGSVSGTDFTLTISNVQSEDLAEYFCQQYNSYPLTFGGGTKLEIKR: 0.06
- S009-F7.66.12 chimeric antibody (antibody, human IgG1, kappa, V domains shown, Human-murine chimeric antibody, human IgG1/kappa constant regions) VH: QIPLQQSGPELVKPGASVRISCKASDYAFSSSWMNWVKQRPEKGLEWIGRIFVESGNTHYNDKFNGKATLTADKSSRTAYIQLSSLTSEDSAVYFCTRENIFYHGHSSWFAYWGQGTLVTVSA VL: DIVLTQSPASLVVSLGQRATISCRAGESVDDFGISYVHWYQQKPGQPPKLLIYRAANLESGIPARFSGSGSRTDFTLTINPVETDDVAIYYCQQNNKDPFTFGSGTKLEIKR: 0.06
- S009-F7.23.19 chimeric antibody (antibody, human IgG1, kappa, V domains shown, Human-murine chimeric antibody, human IgG1/kappa constant regions) VH: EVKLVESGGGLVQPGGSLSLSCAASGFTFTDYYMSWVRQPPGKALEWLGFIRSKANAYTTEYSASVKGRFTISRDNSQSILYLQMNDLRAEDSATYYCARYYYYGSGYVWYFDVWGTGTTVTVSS VL: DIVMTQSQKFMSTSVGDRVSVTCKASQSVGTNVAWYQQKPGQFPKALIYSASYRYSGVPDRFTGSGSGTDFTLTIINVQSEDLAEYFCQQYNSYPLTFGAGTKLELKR: 0.06
- S009-F7.6.17 chimeric antibody (antibody, human IgG1, kappa, V domains shown, Human-murine chimeric antibody, human IgG1/kappa constant regions) VH: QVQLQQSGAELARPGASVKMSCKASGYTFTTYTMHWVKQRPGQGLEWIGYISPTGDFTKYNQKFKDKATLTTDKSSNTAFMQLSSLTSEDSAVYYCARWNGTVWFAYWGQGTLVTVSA VL: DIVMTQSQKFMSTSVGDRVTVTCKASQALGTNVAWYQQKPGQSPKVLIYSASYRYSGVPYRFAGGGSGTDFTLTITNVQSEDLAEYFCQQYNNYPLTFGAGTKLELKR: 0.07
- S009-F7.30.5 chimeric antibody (antibody, human IgG1, kappa, V domains shown, Human-murine chimeric antibody, human IgG1/kappa constant regions) VH: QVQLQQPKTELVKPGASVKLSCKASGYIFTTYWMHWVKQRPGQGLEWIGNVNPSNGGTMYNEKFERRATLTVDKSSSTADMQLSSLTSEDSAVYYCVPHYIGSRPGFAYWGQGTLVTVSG VL: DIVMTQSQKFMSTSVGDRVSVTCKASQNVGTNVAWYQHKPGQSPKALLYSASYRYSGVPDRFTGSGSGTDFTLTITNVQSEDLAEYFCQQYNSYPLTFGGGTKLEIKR: 0.06

Kindly indicate its recorded OD450. Item: S009-F7.53.2 chimeric antibody (antibody, human IgG1, kappa, V domains shown, Human-murine chimeric antibody, human IgG1/kappa constant regions) VH: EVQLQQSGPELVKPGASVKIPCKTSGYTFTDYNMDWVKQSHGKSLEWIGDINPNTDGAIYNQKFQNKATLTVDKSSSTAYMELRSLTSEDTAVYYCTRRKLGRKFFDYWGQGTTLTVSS VL: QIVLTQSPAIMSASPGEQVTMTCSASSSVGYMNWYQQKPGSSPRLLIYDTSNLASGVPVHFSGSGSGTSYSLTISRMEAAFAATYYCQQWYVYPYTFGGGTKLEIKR
0.06
